Each recorded value in this set is attributed to ChEMBL document CHEMBL1806468.

Test system: Escherichia coli
ASSAY_NOTES: Antimicrobial activity against Escherichia coli ATCC 35695 after 16 hrs by broth microdilution method
Format: functional
TEST_SETTINGS: ATCC 35695, 16 h
MIC strictly under 30 µg/mL means YES; at 30 µg/mL or over means NO.

Inquiry: is_below(MIC, 30 µg/mL) for CC(C)Cc1cnc(N)n1Cc1ccccc1.Cl ?
Reply text: NO

Inquiry: Same again, this time with CCCCCn1c(CCCCNC(=O)OCc2ccccc2)cnc1N.Cl
Reply text: NO

Inquiry: Another: Cl.Nc1ncc(-c2ccccc2)n1CCCc1ccccc1
Reply text: NO

Inquiry: Proceed to Cl.Nc1ncc(Cc2ccccc2)n1CCCc1ccccc1
Reply text: NO

Inquiry: Lookup CCCCCn1c(CC(C)C)cnc1N.Cl
Reply text: NO

Inquiry: // same read-out, input: Cl.Nc1ncc(CCCCNC(=O)OCc2ccccc2)n1Cc1ccccc1
Reply text: NO

Inquiry: Now the molecule CCCCCCCCn1c(Cc2ccccc2)cnc1N.Cl
Reply text: NO

Inquiry: Next molecule up: CCCCCn1c(-c2ccccc2)cnc1N.Cl
Reply text: NO

Inquiry: Now the molecule Cl.Nc1ncc(-c2ccccc2)n1Cc1ccccc1
Reply text: YES

Inquiry: Also CCCCCCc1cnc(N)n1CCCc1ccccc1.Cl ?
Reply text: YES

Inquiry: Proceed to CCCCCCc1cnc(N)n1Cc1ccccc1.Cl
Reply text: NO

Inquiry: What do you have for CCCCCCCCCCCCn1c(CCCCCC)cnc1N.Cl ?
Reply text: YES

Inquiry: Continue with CCCCCCc1cnc(N)n1CCCCC.Cl
Reply text: NO

* * *

Tested on: Klebsiella pneumoniae
ASSAY_NOTES: Antimicrobial activity against carbapenem-resistant Klebsiella pneumoniae BAA-2146 expressing […] gene after 16 hrs by broth microdilution method
Assay type: functional
TEST_SETTINGS: BAA-2146, 16 h
Provide the reported MIC of each item.
Give the quantity in µg/mL, number only.

Inquiry: Given CCCCCCc1cnc(N)n1CCCc1ccccc1.Cl , state its recorded MIC.
Reply text: 64

Inquiry: Next entry: CCCCCCCCn1c(-c2ccccc2)cnc1N.Cl
Reply text: 128

Inquiry: And the next one, CC(C)Cc1cnc(N)n1CCCc1ccccc1.Cl ?
Reply text: 128

Inquiry: Ok, now CCCCCCCCn1c(CCCCCC)cnc1N.Cl
Reply text: 32

Inquiry: CCCCCCCCn1c(CC(C)C)cnc1N.Cl , same question.
Reply text: 64

Inquiry: Further, for Cl.Nc1ncc(Cc2ccccc2)n1CCCc1ccccc1 ?
Reply text: 128

Inquiry: Now the molecule Cl.Nc1ncc(CCCCNC(=O)OCc2ccccc2)n1CCCc1ccccc1
Reply text: 128

Inquiry: And for Cl.Nc1ncc(-c2ccccc2)n1Cc1ccccc1 ?
Reply text: 128

Inquiry: And then CCCCCn1c(CC(C)C)cnc1N.Cl , what is it?
Reply text: 128

Inquiry: Next: Cl.Nc1ncc(-c2ccccc2)n1CCCc1ccccc1
Reply text: 128

Inquiry: Next molecule: CCCCCCc1cnc(N)n1Cc1ccccc1.Cl
Reply text: 64

* * *

What log10 MIC was measured for each of the following?
System: Staphylococcus epidermidis
ASSAY_NOTES: Antimicrobial activity against Staphylococcus epidermidis ATCC 29886 after 16 hrs by broth microdilution method
Format: functional
TEST_SETTINGS: ATCC 29886, 16 h
Note the log scale: values are log10 of MIC expressed in µg/mL.

Inquiry: For the compound CCCCCCCCn1c(CCCCCC)cnc1N.Cl , what log10 MIC is on record?
Reply text: -0.90

Inquiry: Next compound up: CCCCCCCCn1c(Cc2ccccc2)cnc1N.Cl
Reply text: 2.11

Inquiry: CCCCCn1c(Cc2ccccc2)cnc1N.Cl ?
Reply text: 1.51

Inquiry: Note, next up: Cl.Nc1ncc(Cc2ccccc2)n1CCCc1ccccc1
Reply text: 1.20

Inquiry: Next record, please: CCCCCn1c(-c2ccccc2)cnc1N.Cl
Reply text: 1.20

Inquiry: One more compound: CCCCCCCCCCn1c(CCCCCC)cnc1N.Cl
Reply text: -0.60

Inquiry: Record: CCCCCCCCn1c(CCCCNC(=O)OCc2ccccc2)cnc1N.Cl
Reply text: 0.30
